assay: endothelial E-selectin expression blockers – imaging, HUVEC, immunofluorescence, MLSMR starter and 10KST1 sets, primary screen (AID 487); conditions: HUVEC TNFalpha-induced E-selectin immunofluorescence imaging, at 2 µM; measured here: cell number, toxicity;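 for nuclei count: 100% = median nuclei count of all wells on the same plate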
parameter: nuclei count (%)
Numeric only. Scale: %

>  <compound>
Nc1c(Sc2ccccc2)c(=O)[nH]c(=O)n1Cc1ccccc1

>  <value-measured>
78.6

$$$$
>  <compound>
COC(=O)c1sc(S(=O)(=O)Nc2ccc3cn[nH]c3c2)c(C(=O)OC)c1C

>  <value-measured>
100

$$$$
>  <compound>
COc1cccc(C(=O)NCC(=O)n2nc(C)cc2C)c1

>  <value-measured>
88.5

$$$$
>  <compound>
COc1cccc(Oc2ccc(N)cn2)c1

>  <value-measured>
114

$$$$
>  <compound>
O=C(Cn1nnc(-c2ccncc2)n1)Nc1ccc2c(c1)CCC2

>  <value-measured>
140

$$$$

## Input Give me measured nuclei count, please, for this compound: O=C1CSC(c2cn(-c3ccccc3)nc2-c2cccs2)N1CC1CCCO1 (configuration not stated)
## Output 117

## Input Give me measured nuclei count, please, for this compound: CCCn1c(NC(=O)C2COc3ccccc3O2)nc2ccccc21 (configuration not stated)
## Output 102

## Input Give me measured nuclei count, please, for this compound: CC(=O)N1C(=O)c2cccc3cccc(c23)C(=O)N1C(C)=O
## Output 120

## Input Give me measured nuclei count, please, for this compound: Cc1nc(=S)n(-c2ccccc2)[nH]1
## Output 120

---

assay: inhibitors of TNFa-induced NFkB p65 translocation, primary screen, imaging, HUVEC, MLSMR starter and 10KST1 sets (AID 438); conditions: HUVEC TNFa-induced p65 nuclear translocation; at 2 µM, stronger effect = higher value, 0% TNFa-plus-vehicle, 100% no-TNFa wells;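 note: compound added about 3h40 before a 20 min TNFalpha stimulation; signal is the nuclear over cytoplasmic p65 intensity ratio per well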
Listed molecules paired with reported inhibition
Numeric only. Scale: %

## Input Give me measured inhibition, please, for this molecule: Cc1ccc2c(COn3nnc4ccc(S(=O)(=O)N(C)C)cc43)cc(=O)oc2c1C
## Output 5.3

## Input Give me measured inhibition, please, for this molecule: CCOc1ccc(-n2cc(C(=O)Nc3cccc(C)n3)c3cc(OC)c(OC)cc3c2=O)cc1
## Output 5.1

## Input Give me measured inhibition, please, for this molecule: Nc1nc(CN2CCN(Cc3ccc4c(c3)OCO4)CC2)nc(Nc2ccccc2)n1
## Output 6.8

## Input Give me measured inhibition, please, for this molecule: CCOC(=O)Cc1nn2c(=O)cc(C)nc2s1
## Output -22.9

## Input Give me measured inhibition, please, for this molecule: COc1ccc(OCc2nc(N)nc(Nc3cccc(C)c3C)n2)cc1
## Output 3.3

## Input Give me measured inhibition, please, for this molecule: N#CC1=C(N)N(c2ccccc2)C2=C(C(=O)CCC2)C1c1cccs1 (stereo not drawn)
## Output 0

---

Listed molecules paired with reported inhibition
assay: endothelial E-selectin expression blockers – imaging, HUVEC, immunofluorescence, MLSMR starter and 10KST1 sets, primary screen (AID 487); settings: HUVEC TNFalpha-induced E-selectin immunofluorescence imaging, at 2 µM; stronger effect = higher value;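 for inhibition: signal is fraction of cell area covered by stained E-selectin grains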
Numeric only. Scale: %

>  <molecule>
C/C(Cl)=C\Cn1c(NCCc2ccccc2)nc2c1c(=O)n(C)c(=O)n2C

>  <value-measured>
6.4

$$$$
>  <molecule>
Cc1ccc(SCCC(=O)N(C)C)cc1

>  <value-measured>
-143

$$$$
>  <molecule>
CCCCC(CC)C(=O)Nc1ccccc1C#N (centres undefined)

>  <value-measured>
-63.4

$$$$

Please turn your attention to the following entry.
## Input Give me measured inhibition, please, for this molecule: CCn1cc(/C=N/O)c(C)n1
## Output -98.3

---

molecular target: Muscarinic acetylcholine receptor M4 (Homo sapiens) (UniProt P08173); experiment: M4-linked GIRK flux change, two-sided – cell-based, HEK293 M4/GIRK, thallium flux, BTC-AM, M4 allosteric agonist project, primary screen (AID 625); conditions: at 10 µM, actives lie on both sides;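 note: thallium influx through GIRK channels coupled to M4 in HEK293 cells with BTC-AM dye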
Sequence (P08173 whole entry, looked up): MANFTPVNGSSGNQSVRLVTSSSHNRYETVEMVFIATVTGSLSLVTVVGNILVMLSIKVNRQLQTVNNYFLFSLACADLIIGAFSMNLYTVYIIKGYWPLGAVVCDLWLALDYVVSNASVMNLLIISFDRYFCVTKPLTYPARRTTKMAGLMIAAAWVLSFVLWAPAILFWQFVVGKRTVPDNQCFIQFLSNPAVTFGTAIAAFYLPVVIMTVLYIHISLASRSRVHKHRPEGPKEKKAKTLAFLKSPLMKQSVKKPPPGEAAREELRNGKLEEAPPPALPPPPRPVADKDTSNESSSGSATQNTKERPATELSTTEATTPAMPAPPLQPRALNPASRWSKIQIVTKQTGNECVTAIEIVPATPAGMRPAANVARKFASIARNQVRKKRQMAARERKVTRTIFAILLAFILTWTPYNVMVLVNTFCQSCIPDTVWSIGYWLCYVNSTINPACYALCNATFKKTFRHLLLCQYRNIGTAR
Parameter class (string): assigned from measured fluorescence slope. Ranges: lo = under 0.005, mid = from 0.005 up to 0.006, hi = 0.006 and over

>  <compound>
CC(=O)c1c(C)[nH]c(C(=O)NCc2cccs2)c1C

>  <assigned-class>
hi

$$$$

## Input Please indicate the class for CCCCNC(=O)Nc1ccnn1C1CCCCC1 based on its fluorescence slope.
## Output hi

## Input Please indicate the class for Cc1nc(C)c(C(=O)Nc2ccc(Oc3ccccc3)cc2)o1 based on its fluorescence slope.
## Output hi

## Input Please indicate the class for COc1ccc(N2CCN(C(=O)CSc3ccccc3N)CC2)cc1 based on its fluorescence slope.
## Output lo

## Input Please indicate the class for O=C(NC1CC2CCC1C2)c1ccc(CN2CCOCC2)cc1 (centres undefined) based on its fluorescence slope.
## Output lo

## Input Please indicate the class for CN(c1ccccc1)S(=O)(=O)c1cc(C(=O)N2CCN(c3ccccn3)CC2)ccc1Cl based on its fluorescence slope.
## Output lo

## Input Please indicate the class for COC(=O)C1(C(=O)OC)Sc2ccccc2C1=O based on its fluorescence slope.
## Output hi

## Input Please indicate the class for C=CCn1c(=O)[nH]c2cc(C(=O)N3CCN(c4cc(C)ccc4C)CC3)ccc2c1=O based on its fluorescence slope.
## Output hi

## Input Please indicate the class for CC(C)CNC(=O)c1ccccc1NC(=O)CN(c1ccc2c(c1)OCCO2)S(C)(=O)=O based on its fluorescence slope.
## Output lo

## Input Please indicate the class for c1ccc2c(-c3nc(C4CCCCC4)no3)cc(-c3ccncc3)nc2c1 based on its fluorescence slope.
## Output hi

## Input Please indicate the class for Cc1cc2oc(C(=O)NC3CCS(=O)(=O)C3)c(C)c2cc1C (centres undefined) based on its fluorescence slope.
## Output lo

## Input Please indicate the class for CSc1nc(N2CCOCC2)c2c(c1C#N)CCCCC2 based on its fluorescence slope.
## Output mid

## Input Please indicate the class for Cc1ccc(N2CN=c3s/c(=C\c4cccnc4)c(=O)n3C2)cc1 based on its fluorescence slope.
## Output mid

## Input Please indicate the class for Nc1nnc(Cc2ccc(Cl)cc2)s1 based on its fluorescence slope.
## Output mid

---

target: Voltage-gated potassium channel subunit beta-2 (Rattus norvegicus); assay: inhibitors of rat Kvbeta2 reductase activity – biochemical, NADPH fluorescence, primary screen (AID 622); details: recombinant KvBeta, 4-cyanobenzaldehyde reduction, at 10 µM, stronger effect = higher value;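 note: slope of raw intensity against log time taken from 70 to 1610 s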
Label scheme for fluorescence slope: lower than -0.5 is Not satisfied, -0.5 and above is Satisfied.

>  <compound>
Cc1ccc2c(c1)-c1cc(C)nn1C(c1ccc3c(c1)OCO3)N2 (configuration not stated)

>  <assigned-class>
Not satisfied

$$$$

## Input Confirm if fluorescence slope reported for the compound COC(=O)c1cc(NC(=O)C2CC=CCC2C(=O)O)cc(C(=O)OC)c1 (configuration not stated) is -0.5 or above.
## Output Not satisfied

## Input Confirm if fluorescence slope reported for the compound CCOc1ccc(NC(=O)CN2CCN(CC(=O)Nc3ccc(F)c(F)c3)CC2)cc1 is -0.5 or above.
## Output Satisfied

## Input Confirm if fluorescence slope reported for the compound CC(=O)N1CCc2cc(S(=O)(=O)NCCC(=O)NC3CCCc4ccccc43)ccc21 (configuration not stated) is -0.5 or above.
## Output Satisfied

## Input Confirm if fluorescence slope reported for the compound Cc1ccc(N2CCN(C(=O)c3ccccc3Br)CC2)c(C)c1 is -0.5 or above.
## Output Not satisfied

## Input Confirm if fluorescence slope reported for the compound CC(=O)OC[C@H]1O[C@@H](n2ncc(=O)[nH]c2=O)[C@H](OC(C)=O)[C@@H]1OC(C)=O is -0.5 or above.
## Output Satisfied

---

experiment: loss of swimming-algae plug formation – whole organism, Chlamydomonas reinhardtii, WT vs cilia-less mutant, absorbance, 96-well, primary screen (AID 463189); conditions: Chlamydomonas reinhardtii gravitaxis, OD600 absorbance, 2 days; at 10 µM; stronger effect = higher value;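 note: 0% = wild type cc124 cells in DMSO and 100% = ciliumless bld1 mutant cells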
Listed compounds paired with reported inhibition
Numeric only. Scale: %

>  <compound>
CNc1ncnc2c1ncn2[C@H]1C[C@H](OP(=O)(O)O)[C@@H](COP(=O)(O)O)O1

>  <endpoint-unit>
%

>  <inhibition>
1.24

$$$$
>  <compound>
Oc1ccc(O)cc1

>  <endpoint-unit>
%

>  <inhibition>
0.661

$$$$
>  <compound>
COc1ccc(C(=O)N2CCCC(c3ccccc3)C2)cc1 (centres undefined)

>  <endpoint-unit>
%

>  <inhibition>
8.1

$$$$

## Input Give me measured inhibition, please, for this compound: N#C/C(=C\c1c[nH]c2ccccc12)C(=O)c1ccc(O)c(O)c1
## Output 4.95

## Input Give me measured inhibition, please, for this compound: CNCC(O)c1ccc(O)c(O)c1 (centres undefined)
## Output 4.49

## Input Give me measured inhibition, please, for this compound: COc1cccc2c1C(=O)c1c(O)c3c(c(O)c1C2=O)C[C@@](O)(C(C)=O)C[C@@H]3O[C@H]1C[C@H](N)[C@H](O)[C@H](C)O1
## Output 33

Data origin, for the record: PubChem BioAssay
